- STUDY_SYSTEM: SARS-CoV-2 Mpro (Severe acute respiratory syndrome coronavirus 2)
- TEST_NAME: SARS-CoV-2 Mpro enzymatic inhibition assay (fluorescence)
- Type: biochemical
OBSERVABLE: IC50 (nM)
# unit: nM | format: bare number

molecule "CC1(C)[C@@H]2[C@@H](C(=O)N[C@H](C=O)C[C@@H]3CCNC3=O)N(C(=O)c3cc4c(F)ccc(F)c4[nH]3)C[C@@H]21" , IC50 observed: 14

Notebook: "N#C[C@@H]1C[C@@H](C(=O)N[C@H](C=O)C[C@@H]2CCNC2=O)N(C(=O)c2cc3ccccc3[nH]2)C1" , IC50 read as 84.6

Lab note: "CC1(C)[C@@H]2[C@@H](C(=O)N[C@@H](C[C@@H]3CCNC3=O)C(=O)C(=O)NC3CC3)N(C(=O)C3(c4ccccc4)CC3)C[C@@H]21" gave IC50 of 143

Looking up "Cc1ccc2cc(C(=O)N3C[C@H]4[C@@H]([C@H]3C(=O)N[C@H](C=O)C[C@@H]3CCNC3=O)C4(C)C)[nH]c2c1C" , I found its IC50 recorded as 15.3

For record "CCc1cccc2[nH]c(C(=O)N3C[C@H]4[C@@H]([C@H]3C(=O)N[C@H](C=O)C[C@@H]3CCNC3=O)C4(C)C)cc12" the listed IC50 is 14.5

IC50 recorded for this molecule, "CC1(C)[C@@H]2[C@@H](C(=O)N[C@H](C=O)C[C@@H]3CCNC3=O)N(C(=O)c3[nH]c4ccccc4c3-c3ccccc3)C[C@@H]21" , is 162

Sample "COc1ccc(F)c2[nH]c(C(=O)N3C[C@H]4[C@@H]([C@H]3C(=O)N[C@H](C=O)C[C@@H]3CCNC3=O)C4(C)C)cc12" ; IC50 observed: 20.6

Documented IC50 of "CC1(C)[C@@H]2[C@@H](C(=O)N[C@H](C#N)C[C@@H]3CCNC3=O)N(C(=O)c3cc4c(F)ccc(Cl)c4[nH]3)C[C@@H]21" : 318

# IC50 (molecule: "O=C[C@H](C[C@@H]1CCNC1=O)NC(=O)[C@@H]1C[C@@H](Oc2ccccc2)CN1C(=O)c1cc2ccccc2[nH]1" ) is 443

The molecule identified as "CC1(C)C[C@@H](C(=O)N[C@H](C=O)C[C@@H]2CCNC2=O)N(C(=O)c2cc3cccc(Cl)c3[nH]2)C1" registered its IC50 at 12.1

Reported IC50 for "CC1(C)[C@@H]2[C@@H](C(=O)N[C@H](C=O)C[C@@H]3CCNC3=O)N(C(=O)c3cc4occc4[nH]3)C[C@@H]21" was 33.3

The recorded IC50 for "O=C[C@H](C[C@@H]1CCNC1=O)NC(=O)[C@@H]1[C@H]2CCC[C@H]2CN1C(=O)c1cc2ccccc2[nH]1" is 16.8

Value of IC50 reported for the molecule "Cc1cccc2c1cc(C(=O)N1C[C@H]3[C@@H]([C@H]1C(=O)N[C@H](C=O)C[C@@H]1CCNC1=O)C3(C)C)n2C" is 127

Value of IC50 reported for the molecule "O=C[C@H](C[C@@H]1CCNC1=O)NC(=O)[C@@H]1CC2(CC2)CN1C(=O)c1cc2cccc(F)c2[nH]1" is 40.1

Quick note, IC50 for "Cc1ccc2[nH]c(C(=O)N3C[C@H]4[C@@H]([C@H]3C(=O)N[C@H](C=O)C[C@@H]3CCNC3=O)C4(C)C)cc2c1" landed at 45.1

Input "CC1(C)[C@@H]2[C@@H](C(=O)N[C@H](C=O)C[C@@H]3CCNC3=O)N(C(=O)c3cc4ccc(F)c(F)c4[nH]3)C[C@@H]21" . Output IC50: 10.2

Entry "CC1(C)[C@@H]2[C@@H](C(=O)N[C@H](C=O)C[C@@H]3CCNC3=O)N(C(=O)c3cc4cc(F)ccc4[nH]3)C[C@@H]21" , IC50 reported as 16.6

====

- STUDY_SYSTEM: HCoV-NL63 Mpro (Human coronavirus NL63)
- Sequence (P0C6X5 2940-3242 limits assumed): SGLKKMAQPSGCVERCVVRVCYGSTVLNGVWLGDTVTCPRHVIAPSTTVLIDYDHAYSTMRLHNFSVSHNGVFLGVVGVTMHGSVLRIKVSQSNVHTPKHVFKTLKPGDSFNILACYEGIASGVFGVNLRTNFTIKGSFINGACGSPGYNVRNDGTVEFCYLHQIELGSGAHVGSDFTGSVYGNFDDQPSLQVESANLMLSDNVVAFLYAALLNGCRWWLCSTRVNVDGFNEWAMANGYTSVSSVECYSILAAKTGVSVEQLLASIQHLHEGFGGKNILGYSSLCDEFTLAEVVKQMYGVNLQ
- TEST_NAME: HCoV-NL63 Mpro enzymatic inhibition assay (fluorescence)
- Format: biochemical
OBSERVABLE: IC50 (nM)
A number alone suffices; assume nM.

Form: item CC(C)(C)[C@H](NC(=O)C(F)(F)F)C(=O)N1C[C@H]2[C@@H]([C@H]1C(=O)N[C@H](C=O)C[C@@H]1CCNC1=O)C2(C)C [Compound 12] ; test system HCoV-NL63 Mpro (Human coronavirus NL63); IC50: 53.9

# value of IC50, HCoV-NL63 Mpro (Human coronavirus NL63), item CC1(C)[C@@H]2[C@@H](C(=O)N[C@H](C#N)C[C@@H]3CCNC3=O)N(C(=O)C3(c4ccccc4)CCCC3)C[C@@H]21 [Compound 136] = 13900

Entry Cc1cccc2[nH]c(C(=O)N3C[C@H]4[C@@H]([C@H]3C(=O)N[C@H](C=O)C[C@@H]3CCNC3=O)C4(C)C)cc12 [Compound 85] ; assay system HCoV-NL63 Mpro (Human coronavirus NL63); IC50 recorded at 53.2

====

- STUDY_SYSTEM: SARS-CoV-2 Mpro (Severe acute respiratory syndrome coronavirus 2)
- TEST_NAME: SARS-CoV-2 Mpro enzymatic inhibition assay (fluorescence)
- Type: biochemical
OBSERVABLE: log10 of IC50 (log10 of the value in nM)
Log scale reminder: IC50 in nM, then log10 taken.

Entry "CC(C)(C)[C@H](NC(=O)c1cc2ccccc2[nH]1)C(=O)N1C[C@H]2[C@@H]([C@H]1C(=O)N[C@@H](C[C@@H]1CCNC1=O)C(=O)C(N)=O)C2(C)C" ; log10 of IC50 = 2.07

molecule "CC1(C)[C@@H]2[C@@H](C(=O)N[C@H](C=O)C[C@@H]3CCNC3=O)N(C(=O)CN3CCCCCC3)C[C@@H]21" , log10 of IC50 observed: 1.41

Sample "CC1(C)[C@@H]2[C@@H](C(=O)N[C@H](C=O)C[C@@H]3CCNC3=O)N(C(=O)CC3CCOCC3)C[C@@H]21" ; log10 of IC50 observed: 1.60

Form field log10 of IC50, entry "COc1ccc2cc(C(=O)N3C[C@H]4[C@@H]([C@H]3C(=O)N[C@H](C=O)C[C@@H]3CCNC3=O)C4(C)C)[nH]c2c1" : 1.41

log10 of IC50 reading for "CC1(C)[C@@H]2[C@@H](C(=O)N[C@H](C=O)C[C@@H]3CCNC3=O)N(C(=O)c3cc4cc(Cl)cc(Cl)c4[nH]3)C[C@@H]21" : 1.35

Per the records, this molecule ( "Cc1cc(Cl)cc2cc(C(=O)N3C[C@H]4[C@@H]([C@H]3C(=O)N[C@H](C=O)C[C@@H]3CCNC3=O)C4(C)C)[nH]c12" ) has log10 of IC50 equal to 1.47

Short answer for "Cc1ccc2cc(C(=O)N3C[C@H]4[C@@H]([C@H]3C(=O)N[C@H](C=O)C[C@@H]3CCNC3=O)C4(C)C)[nH]c2c1" : log10 of IC50 was 1.50

Recorded log10 of IC50 (molecule "CC1(C)C[C@@H](C(=O)N[C@H](C=O)C[C@@H]2CCNC2=O)N(C(=O)c2cc3c(F)cccc3[nH]2)C1" ): 1.39

Documented log10 of IC50 of "O=C[C@H](C[C@@H]1CCNC1=O)NC(=O)[C@@H]1CC2(CC2)CN1C(=O)CC1CCCCC1" : 2.36

// "N#Cc1cccc2cc(C(=O)N3C[C@H](C4CCCCC4)C[C@H]3C(=O)N[C@H](C=O)C[C@@H]3CCNC3=O)[nH]c12" : log10 of IC50 value = 1.51

Measured log10 of IC50 of "CC1(C)[C@@H]2[C@@H](C(=O)N[C@@H](C[C@@H]3CCNC3=O)C(=O)C(=O)NC3CC3)N(C(=O)C3(c4ccccc4)CCCC3)C[C@@H]21" : 1.71

// log10 of IC50 lookup, molecule = "COc1ccc2[nH]c(C(=O)N3C[C@H]4[C@@H]([C@H]3C(=O)N[C@H](C=O)C[C@@H]3CCNC3=O)C4(C)C)cc2c1" , result: 1.45

Briefly, log10 of IC50 measured for "O=C[C@H](C[C@@H]1CCNC1=O)NC(=O)[C@@H]1CC2(CC2)CN1C(=O)c1cc2c(F)cccc2[nH]1" : 1.00

Short answer for "COc1ccc(Cl)c2[nH]c(C(=O)N3C[C@H]4[C@@H]([C@H]3C(=O)N[C@H](C=O)C[C@@H]3CCNC3=O)C4(C)C)cc12" : log10 of IC50 was 1.26

Value of measured log10 of IC50 for the entry "CCOc1cccc2[nH]c(C(=O)N3C[C@H]4[C@@H]([C@H]3C(=O)N[C@H](C=O)C[C@@H]3CCNC3=O)C4(C)C)cc12" : 1.48

# molecule "CC1(C)[C@@H]2[C@@H](C(=O)N[C@H](C=O)C[C@@H]3CCNC3=O)N(C(=O)Cc3ccc4c(c3)CCCC4)C[C@@H]21" ; its log10 of IC50 = 1.34

Quick note, log10 of IC50 for "O=C[C@H](C[C@@H]1CCNC1=O)NC(=O)[C@@H]1CC2(CCC2)CN1C(=O)c1cc2ccccc2[nH]1" landed at 1.09

Kindly note the recorded log10 of IC50 for "CC1(C)[C@@H]2[C@@H](C(=O)N[C@H](C=O)C[C@@H]3CCNC3=O)N(C(=O)c3cc4c(F)ccc(Cl)c4[nH]3)C[C@@H]21" , which is 1.36

Per the record, "Cc1ccc(F)c2[nH]c(C(=O)N3C[C@H]4[C@@H]([C@H]3C(=O)N[C@H](C=O)C[C@@H]3CCNC3=O)C4(C)C)cc12" has log10 of IC50 of 1.52

Measured log10 of IC50, "O=C[C@H](C[C@@H]1CCNC1=O)NC(=O)[C@@H]1CC2(CCC2)CN1C(=O)C1(c2ccccc2)CC1" : 1.56

The molecule "N#Cc1ccc2cc(C(=O)N3CC4(CC4)C[C@H]3C(=O)N[C@H](C=O)C[C@@H]3CCNC3=O)[nH]c2c1" showed log10 of IC50 equal to 1.55

In plain terms, CC1(C)[C@@H]2[C@@H](C(=O)N[C@H](C=O)C[C@@H]3CCNC3=O)N(C(=O)CC3CCCCC3(F)F)C[C@@H]21 (stereo partly shown) has a documented log10 of IC50 of 1.43

# log10 of IC50 of "CO[C@H]1C[C@@H](C(=O)N[C@H](C=O)C[C@@H]2CCNC2=O)N(C(=O)c2cc3ccccc3[nH]2)C1" = 1.80

The molecule "CC(C)c1ccc(F)c2[nH]c(C(=O)N3C[C@H]4[C@@H]([C@H]3C(=O)N[C@H](C#N)C[C@@H]3CCNC3=O)C4(C)C)cc12" showed log10 of IC50 equal to 2.60

Notebook: "CC1(C)[C@@H]2[C@@H](C(=O)N[C@H](C=O)C[C@@H]3CCNC3=O)N(C(=O)CC3CCC(F)(F)CC3)C[C@@H]21" , log10 of IC50 read as 1.16

All figures here come from patent US20260355212A1.
